Measured IFN-α, listed per entry.
System: human PBMCs
Experiment: Human PBMC cytokine response assay (IFN-γ and IFN-α in cell-free medium by ELISA), with or without cPLGA
Assay type: cell-based
Settings: Table 24; donor 28237
Answer with a number only, understood to be in pg/mL.

Worked examples, 3 substances total:
>  <substance>
(5′-TCGTCGA-3′-HEG)2-glycerol-HEG-5′-AACGTTC-3′-HEG-5′-TCGACGT-3′ [Compound C-100]

>  <IFN-α, pg/mL>
193

$$$$
>  <substance>
(5′-TCGTCGA-3′)2-glycerol-5′-TCGTCGA-3′ [Compound C-28]

>  <IFN-α, pg/mL>
16

$$$$
>  <substance>
5′-TCGTCGA-3′-C3-5′-TCGTCGA-3′-C3-5′-TCGTCGA-3′ [Compound C-90]

>  <IFN-α, pg/mL>
345

$$$$

Entry (5′-TCGTCGA-3′-TEG)2-glycerol-TEG-5′-TCGTCGA-3′ [Compound C-103] has what IFN-α?
213
